molecular target: Programmed cell death protein 1/Programmed cell death 1 ligand 1 (Homo sapiens, UniProt Q15116+Q9NZQ7); assay: Inhibition of PD-1/PD-L1 interaction in human MDA-MB-231 cells assessed as increase in mouse splenocytes proliferation; assay type: cell-based; parameters: concentration or dose not given beside the values
Numbered stars: 1 amine (or outer) side, 2 acyl side, 3 side chain; on linkers, the order of the positions; unused ones are H or OH. Square brackets hold non-standard residues; d marks the D form. Peptide text beside a SMILES is read from it. ξ: configuration not given here. X1 = O=C(C(CO)NN[*:1])[*:2]; ξQ = NC(=O)CCC(N)C(=O)O
MEASURE NAME: Activity (%)

[[record]]
compound = "C[C@@H](O)[C@@H]1NC(=O)C(N[C@@H](CO)C(=O)O)CCC(=O)NCCCCC(C(=O)N[C@@H](CO)C(=O)N[C@@H](Cc2ccccc2)C(N)=O)NC(=O)[C@H](CO)NC1=O (stereo partly specified)"
measured_number = 78

[[record]]
compound = "CC[C@H](C)[C@H](NC1CCC(=O)NCCCCC(C(=O)N[C@@H](CO)C(=O)NC(CCC(N)=O)C(=O)O)NC(=O)[C@H](CO)NC(=O)[C@H](CCSC)NC1=O)C(=O)O (stereo partly specified)"
measured_number = 76

[[record]]
compound = "CC[C@H](C)[C@H](NC1CCC(=O)NCCCCC(C(=O)N[C@@H](CO)C(=O)N[C@@H](Cc2ccccc2)C(N)=O)NC(=O)[C@H](CO)NC(=O)[C@H]([C@@H](C)O)NC1=O)C(=O)O (stereo partly specified)"
measured_number = 76

[[record]]
compound = "C[C@@H](O)[C@H](NC(=O)[C@H](CO)NC(CCC(=O)NCCCCNC(=O)C(Cc1ccccc1)NC(=O)C(N)CO)C(N)=O)C(=O)N[C@@H](CC(N)=O)C(=O)N[C@@H](CO)C(=O)O (stereo partly specified)"
measured_number = 87

[[record]]
compound = "C[C@@H](O)[C@@H]1NC(=O)[C@H](CC(N)=O)NC(=O)C(CO)NNC(=O)C(CCC(N)=O)NC(=O)[C@H](Cc2ccccc2)NC(=O)[C@H](CO)NC(=O)[C@H](CCC(=O)O)NC(=O)[C@H](CO)NC1=O (stereo partly specified) (cyclo(ESF[ξQ][X1]NTS))"
measured_number = 76

[[record]]
compound = "C[C@@H](O)[C@@H]1NC(=O)C(N[C@@H](CO)C(=O)O)CCCCNC(=O)CCC(C(=O)N[C@@H](CO)C(=O)N[C@@H](Cc2ccccc2)C(N)=O)NC(=O)[C@H](CO)NC1=O (stereo partly specified)"
measured_number = 84

